Method notes: Assessment of pH solubility of crystalline salts in buffers
Assay type: physicochemical
Condition details: pH 3.0
Counter-ions that a name gives are not always drawn.
Measurement type: Solubility (µg/mL)

{"columns": ["Compound", "Result number"],
 "data": [
  ["CC[C@@H](c1ccccc1)N1Cc2cc3c(cc2C[C@H]1C(=O)N[C@@H](Cc1ccc(-c2ccnc(C)c2C)cc1)C(=O)O)OC[C@H](c1ccc(OCc2ccc(Cl)c(Cl)c2)cc1)O3 [Crystal form C of sulfate]", 1],
  ["CC[C@@H](c1ccccc1)N1Cc2cc3c(cc2C[C@H]1C(=O)N[C@@H](Cc1ccc(-c2ccnc(C)c2C)cc1)C(=O)O)OC[C@H](c1ccc(OCc2ccc(Cl)c(Cl)c2)cc1)O3 [Crystal form C of p-toluenesulfonate]", 1]
]}

a: CC[C@@H](c1ccccc1)N1Cc2cc3c(cc2C[C@H]1C(=O)N[C@@H](Cc1ccc(-c2ccnc(C)c2C)cc1)C(=O)O)OC[C@H](c1ccc(OCc2ccc(Cl)c(Cl)c2)cc1)O3 [Crystal form B of hydrochloride]
b: CC[C@@H](c1ccccc1)N1Cc2cc3c(cc2C[C@H]1C(=O)N[C@@H](Cc1ccc(-c2ccnc(C)c2C)cc1)C(=O)O)OC[C@H](c1ccc(OCc2ccc(Cl)c(Cl)c2)cc1)O3 [Crystal form C of hydrobromide]
Query block: Sort a and b by Solubility descending and give the first. Refer to your chosen item by its label in the answer.
Result block: a
